# Test target: DMC1 ΔN (Homo sapiens, UniProt Q14565)
# Construct: DMC1 ΔN (83-340) were cloned into pHAT4; His6 (TEV-cleavable) (N, cleaved yes); made in house; host or cells: E. coli BL21 (DE3)
# Sequence (Q14565 83-340): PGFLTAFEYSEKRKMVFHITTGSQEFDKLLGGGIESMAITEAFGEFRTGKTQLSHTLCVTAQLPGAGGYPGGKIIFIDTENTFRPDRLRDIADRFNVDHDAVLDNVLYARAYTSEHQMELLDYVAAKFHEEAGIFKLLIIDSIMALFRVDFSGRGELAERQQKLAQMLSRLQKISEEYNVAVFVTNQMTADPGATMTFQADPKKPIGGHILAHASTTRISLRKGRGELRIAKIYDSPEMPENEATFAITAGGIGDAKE
# Experiment: Microscale thermophoresis (MST), BRCA2 peptides and DMC1 ΔN
# Type: binding
# Condition: MST from initial fluorescence; labelled DMC1 ΔN 150 nM; 10 mM HEPES pH 8.0, 150 mM NaCl, 0.05 % Tween-20; ~22 °C; mean, n = 3 independent experiments
No end group written: not given here.
Endpoint: Kd (µM)

ATRNEKMRHLITTGRPTKVFVPPFKTKSHFHRVE [Ex14]; 30.4
RPTKVFVPPFKTKS [Ex14-Tr]; 35.7
